These entries and their values trace back to ChEMBL document CHEMBL4627308.

Target: D(2) dopamine receptor (Homo sapiens, UniProt P14416)
Sequence (P14416 whole entry): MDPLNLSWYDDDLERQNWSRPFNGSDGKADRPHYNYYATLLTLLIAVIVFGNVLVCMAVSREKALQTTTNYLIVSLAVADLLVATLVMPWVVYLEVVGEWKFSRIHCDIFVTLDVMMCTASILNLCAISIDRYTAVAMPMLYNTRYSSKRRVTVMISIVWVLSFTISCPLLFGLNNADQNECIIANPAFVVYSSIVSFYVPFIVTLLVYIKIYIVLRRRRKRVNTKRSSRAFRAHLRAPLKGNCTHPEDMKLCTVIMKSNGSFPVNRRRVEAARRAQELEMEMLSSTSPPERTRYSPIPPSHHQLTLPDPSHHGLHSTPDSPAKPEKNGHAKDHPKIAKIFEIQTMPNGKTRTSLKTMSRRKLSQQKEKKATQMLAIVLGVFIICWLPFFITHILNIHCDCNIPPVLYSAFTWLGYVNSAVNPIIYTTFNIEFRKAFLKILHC
Experiment: Binding affinity to human D2 receptor
Values of Ki strictly less than 0.9 µM map to Criterion met, and values of at least 0.9 µM map to Criterion not met.

Known results for compounds:
{"COMPOUND": "C#CCOc1c(OC)cc2c3c1-c1cc(NC(C)=O)ccc1CC3N(C)CC2 (stereo not given)", "ANSWER LABEL": "Criterion met"}
{"COMPOUND": "COc1cc2c3c(c1OC)-c1cc([N+](=O)[O-])ccc1CC3N(C)CC2 (stereo not given)", "ANSWER LABEL": "Criterion met"}
{"COMPOUND": "C#CCOc1c(OC)cc2c3c1-c1cc(N)ccc1CC3N(C)CC2 (stereo not given)", "ANSWER LABEL": "Criterion met"}

Threshold test, Ki < 0.9 µM: COc1cc2c3c(c1O)-c1cc([N+](=O)[O-])ccc1CC3N(C)CC2 (stereo not given) Criterion met

Threshold test, Ki < 0.9 µM: C#CCOc1c(OC)cc2c3c1-c1cc([N+](=O)[O-])ccc1CC3N(C)CC2 (stereo not given) Criterion not met

Threshold test, Ki < 0.9 µM: COc1cc2c3c(c1OC1CC1)-c1cc(N)ccc1CC3N(C)CC2 (stereo not given) Criterion not met

---

Biological target: D(1A) dopamine receptor (Homo sapiens)
Sequence (P21728 whole entry): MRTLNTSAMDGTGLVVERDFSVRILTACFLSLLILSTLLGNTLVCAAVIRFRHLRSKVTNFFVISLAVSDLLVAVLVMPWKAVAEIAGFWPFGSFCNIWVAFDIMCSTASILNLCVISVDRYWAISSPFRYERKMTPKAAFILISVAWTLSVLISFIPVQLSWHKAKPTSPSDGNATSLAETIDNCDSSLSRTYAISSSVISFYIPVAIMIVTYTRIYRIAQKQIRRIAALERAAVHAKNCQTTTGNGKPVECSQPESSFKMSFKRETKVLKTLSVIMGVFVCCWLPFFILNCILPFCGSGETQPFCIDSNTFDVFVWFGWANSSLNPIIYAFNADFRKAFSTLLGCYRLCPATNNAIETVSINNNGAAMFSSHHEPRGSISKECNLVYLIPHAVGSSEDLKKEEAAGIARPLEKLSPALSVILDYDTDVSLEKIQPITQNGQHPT
Assay: Binding affinity to human D1 receptor
QUANTITY: Ki (nM)
Provide the reading as a plain figure in nM.

{"MOLECULE": "C=CCOc1c(OC)cc2c3c1-c1cc(NC(C)=O)ccc1CC3N(C)CC2 (configuration not stated)", "TESTED TARGET": "D(1A) dopamine receptor (Homo sapiens)", "Ki / nM": 155}

Tell us which Ki value is on record for C=CCOc1c(OC)cc2c3c1-c1cc(N)ccc1CC3N(C)CC2 (configuration not stated) 830

Tell us which Ki value is on record for CN1CCc2cccc3c2C1Cc1ccc([N+](=O)[O-])cc1-3 (configuration not stated) 928

Tell us which Ki value is on record for COc1cc2c3c(c1OC1CC1)-c1cc(N)ccc1CC3N(C)CC2 (configuration not stated) 1110

Tell us which Ki value is on record for COc1cc2c3c(c1OC)-c1cc(N)ccc1CC3N(C)CC2 (configuration not stated) 691

Tell us which Ki value is on record for C#CCOc1c(OC)cc2c3c1-c1cc([N+](=O)[O-])ccc1CC3N(C)CC2 (configuration not stated) 536

Tell us which Ki value is on record for COc1cc2c3c(c1O)-c1cc([N+](=O)[O-])ccc1CC3N(C)CC2 (configuration not stated) 316

Tell us which Ki value is on record for C#CCOc1c(OC)cc2c3c1-c1cc(N)ccc1CC3N(C)CC2 (configuration not stated) 709

Tell us which Ki value is on record for COc1cc2c3c(c1OC)-c1cc(NC(C)=O)ccc1CC3N(C)CC2 (configuration not stated) 756

Tell us which Ki value is on record for COc1cc2c3c(c1O)-c1cc(N)ccc1CC3N(C)CC2 (configuration not stated) 301

Tell us which Ki value is on record for C#CCOc1c(OC)cc2c3c1-c1cc(NC(C)=O)ccc1CC3N(C)CC2 (configuration not stated) 58

Tell us which Ki value is on record for COc1cc2c3c(c1OC)-c1cc([N+](=O)[O-])ccc1CC3N(C)CC2 (configuration not stated) 726
